- Tested on: granulocytes
- Test method notes: enzyme activity with fluorogenic substrate, normal granulocytes (Table 3A)
- Assay type: cell-based, human
Numbered stars: 1 amine (or outer) side, 2 acyl side, 3 side chain; on linkers, the order of the positions; unused ones are H or OH. Bridge positions count the residues as written; N and C are the ends. Peptide text beside a SMILES is read from it. I, II: the chains in the order shown. Rhodamine110 = O=C1OC2(c3ccc(N[*:1])cc3Oc3cc(N[*:2])ccc32)c2ccccc21
Known NORMAL LEUKOCYTE ENZYME ACTIVITY GRANS Mean of a selection of compounds
Note: the reply should be a number with no unit written.

>>> reported_measurement("C[C@@H](O)[C@H](NC(=O)OCc1ccccc1)C(=O)N1CCC[C@H]1C(=O)Nc1ccc2c(c1)Oc1cc(NC(=O)[C@@H]3CCCN3C(=O)[C@@H](NC(=O)OCc3ccccc3)[C@@H](C)O)ccc1C21OC(=O)c2ccccc21 [Z-TP6.5M]")
55.07
>>> reported_measurement("N=C(N)NCCC[C@H](N)C(=O)NCC(=O)N[C@@H](CCC(=O)O)C(=O)N[C@@H](CO)C(=O)Nc1ccc2c(c1)Oc1cc(NC(=O)[C@H](CO)NC(=O)[C@H](CCC(=O)O)NC(=O)CNC(=O)[C@@H](N)CCCNC(=N)N)ccc1C21OC(=O)c2ccccc21 (stereo partly drawn) [RGES, (Arg-Gly-Glu-Ser)2 Rho 110] (I: H-RGES / II: H-RGES; linker I:C-II:C via Rhodamine110)")
3.96
>>> reported_measurement("O=C1OC2(c3ccc(OC4O[C@H](CO)[C@@H](O)[C@H](O)[C@H]4O)cc3Oc3cc(OC4O[C@H](CO)[C@@H](O)[C@H](O)[C@H]4O)ccc32)c2ccccc21 (stereo partly shown)")
0.45

Proceed to the following item.
Entry under review: C[C@@H](O)[C@H](NC(=O)OCc1ccccc1)C(=O)N1CCC[C@H]1C(=O)Nc1ccc2c(c1)Oc1cc(NC(=O)[C@@H]3CCCN3C(=O)[C@@H](NC(=O)OCc3ccccc3)[C@@H](C)O)ccc1C21OC(=O)c2ccccc21 [Z-TP 8.7-M] . Reported NORMAL LEUKOCYTE ENZYME ACTIVITY GRANS Mean?
80.16

###

- Tested on: metabolically active whole cell
- Test method notes: substrate panel in normals and HIV + patients, TB infection (Table 4)
- Type: cell-based, human
- Set-up: unit not given here
- Stated conditions: HIV + PATIENTS
Property label: MEAN DELTA FL

Use these answered entries as a reference point.
>>> reported_measurement("C[C@@H](O)[C@H](N)C(=O)N1CCC[C@H]1C(=O)Nc1ccc2c(c1)Oc1cc(NC(=O)[C@@H]3CCCN3C(=O)[C@@H](N)[C@@H](C)O)ccc1C21OC(=O)c2ccccc21")
10.2
>>> reported_measurement("NCCCC[C@H](N)C(=O)Nc1ccc2c(c1)Oc1cc(NC(=O)[C@@H](N)CCCCN)ccc1C21OC(=O)c2ccccc21 [LYS, (H-L-Lys)2 Rho 110 .4TFA]")
7.4
>>> reported_measurement("C[C@H](N)C(=O)Nc1ccc2c(c1)Oc1cc(NC(=O)[C@H](C)N)ccc1C21OC(=O)c2ccccc21")
59.0
>>> reported_measurement("CC(C)C[C@H](NC(=O)CN)C(=O)Nc1ccc2c(c1)Oc1cc(NC(=O)[C@H](CC(C)C)NC(=O)CN)ccc1C21OC(=O)c2ccccc21")
16.3

Entry under review: CC(C)[C@H](N)C(=O)N[C@@H](CO)C(=O)Nc1ccc2c(c1)Oc1cc(NC(=O)[C@H](CO)NC(=O)[C@@H](N)C(C)C)ccc1C21OC(=O)c2ccccc21 [VS, (H-L-Val--Ser)2 Rho 110 .2TFA] . Reported MEAN DELTA FL?
32.5
